# Species on record: Rattus norvegicus
# PROCEDURE_DETAILS: Inhibition was measured for [3H]GABA-uptake from rat synaptosomal membrane.
VALUE_TYPE: Ki (µM)
Write down the numeric answer in µM and omit the unit.

| COMPOUND | UNIT_ANNOTATION | Ki |
| --- | --- | --- |
| O=C(O)C1CCCNC1 (stereo not drawn) [NIPECOTIC ACID] | µM | 3.8 |

Query: Recorded Ki of O=C(O)C1=CC(=C(c2ccccc2)c2ccccc2)CNC1 , please.
Response: 104

Query: Reported Ki, compound CN1CC(C(=O)O)=CC(=C(c2ccccc2)c2ccccc2)C1 : ____
Response: 12.9

# credit: ChEMBL document CHEMBL1123200
